Measured values drawn from ChEMBL document CHEMBL1145682 for this set.

- PROTOCOL SUMMARY: Toxicity in Artemia salina
- Assay type: organism-based
- SETTINGS: in vivo
# strict inequality: LC50 < 50 µg/mL yields condition met, everything else yields condition not met

Answered cases to consult:
# COMPOUND, ASSIGNED LABEL
records = [
    ("CC(C)[C@@H]1CC[C@@](C)(O)[C@]2(O)[C@@H](O)C[C@@H](C)C[C@@H]12", "condition not met"),
    ("CC1=C[C@@H]2[C@@H](CC1)[C@](C)(O)CC[C@H]2C(C)C", "condition met"),
]

Q: Find out if reported LC50 for O=C1OCc2c1cc1ccc3c(c1c2-c1ccc2c(c1)OCO2)OCO3 [HELIOXANTHIN] is less than 50 µg/mL
A: condition not met

Q: Find out if reported LC50 for `CC1=C[C@@H]2[C@@H](CC1=O)[C@](C)(O)CC[C@H]2C(C)C` is less than 50 µg/mL
A: condition not met

Q: Find out if reported LC50 for CC(C)c1cc2c(cc1O)[C@@]1(C)CCCC(C)(C)[C@@H]1CC2 [FERRUGINOL] is less than 50 µg/mL
A: condition met

Q: Find out if reported LC50 for `CC1=C[C@H]2[C@@H](C(C)C)CC[C@@](C)(O)[C@H]2CC1=O` is less than 50 µg/mL
A: condition not met
